All figures here come from patent US12421253B2.

experimental_system: KRas^G12V (Homo sapiens, UniProt P01116, G12V)
Construct: […]; biotin (biotinylated)
Sequence (P01116 1-169 isoform P01116-2 G12V): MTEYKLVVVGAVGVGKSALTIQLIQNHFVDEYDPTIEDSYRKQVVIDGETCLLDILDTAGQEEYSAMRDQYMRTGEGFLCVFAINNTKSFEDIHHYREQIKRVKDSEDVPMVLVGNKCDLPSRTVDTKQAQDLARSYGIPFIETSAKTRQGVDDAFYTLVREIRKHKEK
test_method_notes: KRas binding assay (TR-FRET displacement of Cy5 labelled tracer)
pIC50: −log10 of the molar value.
Could you label it satisfied if measured pIC50 is 7 or higher, and not satisfied otherwise?

Query: Given CCc1c(F)ccc2cc(O)cc(N3CCc4c(nc(OCC56CCCN5CCC6)nc4N4CCC[C@@](C)(O)C4)C3)c12 [Example 1] , state whether its pIC50 is at least 7.
Reply: satisfied

Query: Given O=C1NC(=O)C2CN(c3nc(OC[C@@]45CCCN4C[C@H](F)C5)nc4c3CCN(c3cc(O)cc5ccc(F)c(Br)c35)C4)CC12 (stereo partly shown) [Example 226] , state whether its pIC50 is at least 7.
Reply: satisfied

Query: Given CCc1c(F)ccc2cc(O)cc(N3CCc4c(nc(OC[C@@]56CCCN5C[C@H](F)C6)nc4N4CCCc5nn(C(=O)NC(C)C)cc5C4)C3)c12 [Example 195] , state whether its pIC50 is at least 7.
Reply: satisfied

Query: Given CCc1c(F)ccc2cc(O)cc(N3CCc4c(nc(OC[C@@]56CCCN5C[C@H](F)C6)nc4N4CCCC(O)CC4)C3)c12 (stereo partly shown) [Example 30] , state whether its pIC50 is at least 7.
Reply: satisfied

Query: Given CCc1cccc2cccc(N3CCc4c(nc(OCC56CCCN5CCC6)nc4N4CCC(OCC(N)=O)CC4)C3)c12 [Example 89] , state whether its pIC50 is at least 7.
Reply: not satisfied

Query: Given CCc1cccc2cccc(N3CCc4c(nc(OCC56CCCN5CCC6)nc4N4CCCC(c5c[nH]cn5)C4)C3)c12 (stereo not shown) [Example 116] , state whether its pIC50 is at least 7.
Reply: not satisfied

Query: Given CCc1c(F)ccc2cc(O)cc(N3CCc4c(nc(OC[C@@]56CCCN5C[C@H](F)C6)nc4N4CCCn5nc(CO)cc5C4)C3)c12 [Example 34] , state whether its pIC50 is at least 7.
Reply: satisfied
